# method: Cytotoxicity against human HEK293 cells assessed as decrease in cell viability after 20 hrs by resazurin based fluorescence assay
# Type: toxicity
Recorded CC50 at 20 h for the following compounds
metric: CC50 at 20 h

# compound, metric, recordedResult
records = [
    ("CC(C)(O)c1coc(S(=O)(=O)NC(=O)Nc2c3c(cc4c2CCC4)CCC3)c1", "CC50 at 20 h", "> 62.5 µM"),
    ("CC(C)(O)c1coc(S(=O)(=O)NC(=O)Nc2c3c(cc4c2C(O)CC4)CCC3)c1 (racemic)", "CC50 at 20 h", "> 62.5 µM"),
    ("CC(C)(O)c1coc(S(=O)(=O)NC(=O)Nc2c3c(cc4c2CCC4O)CCC3)c1 (racemic)", "CC50 at 20 h", "> 62.5 µM"),
    ("CC(C)(O)c1coc(S(=O)(=O)NC(=O)Nc2c3c(cc4c2CC(O)C4)CCC3)c1 (centres undefined)", "CC50 at 20 h", "> 62.5 µM"),
]

----------
# systemName: NACHT, LRR and PYD domains-containing protein 3 (Homo sapiens)
# Sequence (Q96P20 whole entry, the tested form may be a part): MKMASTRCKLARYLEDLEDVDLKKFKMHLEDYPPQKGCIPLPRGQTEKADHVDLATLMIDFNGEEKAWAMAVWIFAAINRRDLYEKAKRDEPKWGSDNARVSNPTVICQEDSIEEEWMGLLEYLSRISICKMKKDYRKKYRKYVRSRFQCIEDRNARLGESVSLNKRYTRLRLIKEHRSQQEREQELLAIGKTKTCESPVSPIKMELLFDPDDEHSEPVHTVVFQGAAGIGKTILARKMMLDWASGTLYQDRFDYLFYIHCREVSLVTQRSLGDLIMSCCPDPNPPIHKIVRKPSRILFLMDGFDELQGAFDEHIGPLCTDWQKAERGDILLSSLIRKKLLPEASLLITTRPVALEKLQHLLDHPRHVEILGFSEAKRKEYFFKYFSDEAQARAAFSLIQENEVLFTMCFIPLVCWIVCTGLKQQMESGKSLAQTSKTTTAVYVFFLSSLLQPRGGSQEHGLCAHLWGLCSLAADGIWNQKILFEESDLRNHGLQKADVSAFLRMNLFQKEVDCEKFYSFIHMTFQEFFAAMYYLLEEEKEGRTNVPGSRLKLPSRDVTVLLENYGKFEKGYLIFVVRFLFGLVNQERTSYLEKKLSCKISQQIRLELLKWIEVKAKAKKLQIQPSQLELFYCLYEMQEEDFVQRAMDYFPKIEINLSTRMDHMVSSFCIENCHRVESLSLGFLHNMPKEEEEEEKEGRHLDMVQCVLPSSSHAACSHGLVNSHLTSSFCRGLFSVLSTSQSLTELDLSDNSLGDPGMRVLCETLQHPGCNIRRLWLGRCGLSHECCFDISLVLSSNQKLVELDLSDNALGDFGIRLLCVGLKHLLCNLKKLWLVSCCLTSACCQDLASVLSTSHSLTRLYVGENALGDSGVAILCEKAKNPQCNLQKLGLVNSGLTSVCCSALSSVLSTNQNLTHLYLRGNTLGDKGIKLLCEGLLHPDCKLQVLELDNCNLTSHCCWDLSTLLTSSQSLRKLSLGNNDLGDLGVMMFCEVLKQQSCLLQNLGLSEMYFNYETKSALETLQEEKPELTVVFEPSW
# method: Inhibition of NLRP3 inflammasome in LPS-stimulated human monocyte derived macrophages assessed as reduction in NLRP3 inflammasome-induced IL-1beta production preincubated for 30 mins followed by NLRP3 stimulation with ATP for 1 hr by ELISA
pIC50: −log10 of the molar value.
Recorded pIC50 by entry
metric: pIC50

# compound, recordedResult
data = [
    ("CC(C)(O)c1coc(S(=O)(=O)NC(=O)Nc2c3c(cc4c2CCC4O)CCC3)c1 (racemic)", 5.71),
    ("CC(C)(O)c1coc(S(=O)(=O)NC(=O)Nc2c3c(cc4c2CC[C@@H]4O)CCC3)c1", 5.20),
    ("CC(C)(O)c1coc(S(=O)(=O)NC(=O)Nc2c3c(cc4c2CC(O)C4)CCC3)c1 (stereo not given)", 5.74),
    ("CC(C)(O)c1coc(S(=O)(=O)NC(=O)Nc2c3c(cc4c2C(O)CC4)CCC3)c1 (racemic)", 6.63),
    ("CC(C)(O)c1coc(S(=O)(=O)NC(=O)Nc2c3c(cc4c2CC[C@H]4O)CCC3)c1", 5.91),
]
